measurement.kind: glass transition temperature (°C)

Guide cases for glass transition temperature, answers given:
INSERT INTO assay_data (molecule, endpoint_unit, measured_result) VALUES
  ('*C/C=C/COC(=O)NCCCCCCNC(=O)O* (repeat unit)', '°C', -39.00),
  ('*c1ccc(Oc2ccc(C3(c4ccc(Oc5ccc(N6C(=O)c7ccc(Oc8ccc(C9(c%10ccc(Oc%11ccc%12c(c%11)C(=O)N(*)C%12=O)cc%10)CCC(c%10ccccc%10)CC9)cc8)cc7C6=O)cc5)cc4)CC4CC3C3CCCC43)cc2)cc1 (repeat unit)', '°C', 255.00),
  ('*c1ccc(-c2ccc(-c3c(-c4ccccc4)nc4ccc(-c5ccc6nc(-c7ccccc7)c(*)c(-c7ccccc7)c6c5)cc4c3-c3ccccc3)cc2)cc1 (repeat unit)', '°C', 405.00),
  ('*O[Si](*)(C)CCCCOc1ccc(-c2ccc(C#N)cc2)cc1 (repeat unit)', '°C', 22.50);

1 = *c1ccc(Cc2ccc(NC(=O)c3ccc(Oc4cccc5c4C(=O)N(*)C5=O)cc3)cc2)cc1 (repeat unit)
2 = *Oc1ccc(Oc2ccc(Oc3ccc(Oc4ccc(OC(=O)c5cccc(C(*)=O)c5)cc4)cc3)cc2)cc1 (repeat unit)
3 = *CCCCCCCOC(=O)c1ccc2cc(C(=O)O*)ccc2c1 (repeat unit)
Exam item: Parameters: sort_field (glass transition temperature), sort_dir (desc). List each label, following the requested order.
Marked response: 1, 2, 3

----------
measurement.kind: glass transition temperature (°C)

Here is how some compounds turned out for glass transition temperature.
INSERT INTO assay_data (compound, endpoint_unit, measured_result) VALUES
  ('*c1ccc(NC(=O)CCCCCCCCC(=O)Nc2ccc(S(*)(=O)=O)cc2)cc1 (repeat unit)', '°C', 72.34),
  ('*Oc1ccc(CC(NC(=O)CCc2ccc(OC(=O)CCCCC(*)=O)cc2)C(=O)OCc2ccccc2)cc1 (repeat unit)', '°C', 54.50),
  ('*c1ccc2c(c1)C(=O)N(C1CC(C)(C)CC(C)(CN3C(=O)c4ccc(C(*)(C(F)(F)F)C(F)(F)F)cc4C3=O)C1)C2=O (repeat unit)', '°C', 278.00),
  ('*c1cccc(C(=O)c2ccc(Oc3ccc(N4C(=O)c5ccc(Oc6ccc7c(c6)C(=O)N(*)C7=O)cc5C4=O)cc3C(F)(F)F)cc2)c1 (repeat unit)', '°C', 224.00);

P = *c1ccc(Oc2ccc(Oc3ccc(N4C(=O)c5ccc(Oc6cc7ccccc7cc6Oc6ccc7c(c6)C(=O)N(*)C7=O)cc5C4=O)cc3)cc2)cc1 (repeat unit)
Q = *O[Si](*)(C)CCCOc1ccc(C(=O)OC2CCC3(C)C(=CCC4C3CCC3(C)C(C(C)CCCC(C)C)CCC43)C2)cc1 (repeat unit)
Exam item: I would appreciate it if you could say which entry, P or Q , has the lower glass transition temperature value. Field: selected label. Fill in the label of the entry you choose.
Marked response: Q

----------
measurement.kind: glass transition temperature (°C)

I = *Oc1ccc(Oc2ccc(C(=O)c3ccc(C(=O)c4ccc(*)cc4)cc3)cc2)cc1-c1ccc(Cl)c(C(F)(F)F)c1 (repeat unit)
II = *c1ccc(NC(=O)Nc2ccc(NC(=O)Nc3ccc(-c4nc(-c5ccc(-c6nc(-c7ccc([N+](=O)[O-])cc7)c(-c7ccc([N+](=O)[O-])cc7)[nH]6)cc5)[nH]c4*)cc3)cc2)cc1 (repeat unit)
III = *Oc1ccc(Cc2ccc(Cc3ccc(OC(*)=O)cc3)cc2)cc1 (repeat unit)
Exam item: Form: Sort by [glass transition temperature] Order [ ascending ] Put the labels in the requested order and list them out.
Marked response: III, I, II
(III: 79.50 °C, I: 147.00 °C, II: 272.00 °C)

----------
measurement.kind: glass transition temperature (°C)

See these solved cases before continuing.
INSERT INTO assay_data (compound, measured_result) VALUES
  ('*Oc1c(C)cc(*)cc1C (repeat unit)', 212.00),
  ('*c1ccc(OCCN(C)c2ccc(/C=C/C3=CC(=C4/C(=O)c5ccccc5C4=C(C#N)C#N)/C=C(/C=C/c4ccc(N(C)CCOc5ccc(-c6nc7ccc(Oc8ccc9nc(*)c(-c%10ccccc%10)nc9c8)cc7nc6-c6ccccc6)cc5)cc4)O3)cc2)cc1 (repeat unit)', 260.00),
  ('*c1ccc(Oc2ccc(N3C(=O)C(c4ccccc4)=C(c4ccc(C5=C(c6ccccc6)C(=O)N(*)C5=O)cc4)C3=O)cc2)cc1 (repeat unit)', 293.00);

I = *Oc1ccc(C(C)(C)c2ccc(OC(=O)c3ccc(C(*)=O)cc3)c(CCCC)c2)cc1CCCC (repeat unit)
II = *Nc1ccc(Cc2ccc(NC(=O)c3cc(C(*)=O)cc(N4C(=O)C=CC4=O)c3)cc2)cc1 (repeat unit)
III = *Oc1ccc(C(C)(C)c2ccc(OC(=O)OCCCCOC(*)=O)cc2)cc1 (repeat unit)
IV = *CC(*)OCCCCCCCCCCCOc1ccc(C(=O)Oc2ccc(C#N)cc2)cc1 (repeat unit)
V = *CCOCCOCCOC(=O)CCCCCC(=O)O* (repeat unit)
Exam item: Rank the items in ascending order with respect to glass transition temperature. Ranked list of labels, please, in the requested order.
Marked response: V, IV, III, I, II

----------
measurement.kind: glass transition temperature (°C)

INSERT INTO measurements (molecule, measured_result) VALUES
  ('*Oc1cccc(N(c2ccccc2)c2ccc(-c3ccc(N(c4ccc(/N=N/c5ccc([N+](=O)[O-])cc5)cc4)c4cccc(OC(=O)OCCOCCOC(*)=O)c4)cc3)cc2)c1 (repeat unit)', 111.00),
  ('*Oc1ccc(/C=C/c2cc(OCCCCCCCC)c(/C=C/c3ccc(Oc4cc5c6c(ccc7c8c(*)cc9c%10c(ccc(c4c67)c%108)C(=O)N(CCCCCCCC)C9=O)C(=O)N(CCCCCCCC)C5=O)cc3)cc2OCCCCCCCC)cc1 (repeat unit)', 103.00),
  ('*Nc1cc(NC(=O)C(*)=O)ccc1C (repeat unit)', -54.6),
  ('*c1ccc(N2C(=O)c3ccc(Oc4ccc(C(C)(C)c5cccc(Oc6ccc7c(c6)C(=O)N(*)C7=O)c5)cc4)cc3C2=O)cc1 (repeat unit)', 268.00),
  ('*C(=O)Nc1cccc2c(NC(=O)c3ccc4c(c3)C(=O)N(c3ccc(Oc5cccc6c(N7C(=O)c8ccc(*)cc8C7=O)cccc56)cc3)C4=O)cccc12 (repeat unit)', 299.00),
  ('*Oc1ccc(-c2ccc(Oc3cccc(*)n3)cc2)cc1 (repeat unit)', 119.00);

A = *Nc1ccc(*)cc1OCCCCCCCCCCCCCCCC (repeat unit)
B = *[O][Zn][O]C(=O)c1ccccc1C(=O)OCCCCCOC(=O)Nc1cc(NC(=O)OCCCCCOC(=O)c2ccccc2C(*)=O)ccc1C (repeat unit)
C = *Oc1c(-c2ccccc2)cc(*)cc1-c1cccc(C)c1 (repeat unit)
D = *Oc1c(C)cc(-c2cc(C)c(OC(=O)CCCCCCCCC(*)=O)c(C)c2)cc1C (repeat unit)
Exam item: Place the items in sequence of falling glass transition temperature. Respond with an ordered listing of the labels, as requested.
Marked response: C, A, D, B
(C: 219.00 °C, A: 92.00 °C, D: 57.00 °C, B: 4.20 °C)

----------
measurement.kind: glass transition temperature (°C)

Previously resolved entries follow.
INSERT INTO assay_data (compound, measurement_kind, measured_result) VALUES
  ('*c1ccc(-c2ccc(-n3c(=O)c4cc5c(=O)n(*)c(=O)c5cc4c3=O)cc2OC(F)(F)F)c(OC(F)(F)F)c1 (repeat unit)', 'glass transition temperature', 373.50),
  ('*c1ccc2c(c1)C(=O)N(c1cccc(NC(=O)C(F)(F)C(F)(F)C(F)(F)C(F)(F)C(=O)Nc3cccc(N4C(=O)c5ccc(C(*)(C(F)(F)F)C(F)(F)F)cc5C4=O)c3)c1)C2=O (repeat unit)', 'glass transition temperature', 232.00);

P = *Oc1ccc(CC(NC(=O)CCc2ccc(OC(=O)CCCCCCC(*)=O)cc2)C(=O)OCC(C)C)cc1 (repeat unit)
Q = *c1ccc(Oc2ccc(-c3cc(-c4ccccc4)c4cc(C5(c6ccc7nc(*)cc(-c8ccccc8)c7c6)c6ccccc6C(=O)c6ccccc65)ccc4n3)cc2)cc1 (repeat unit)
Exam item: Lower glass transition temperature: P or Q ? I would appreciate it if you answered with the label of your choice.
Marked response: P
(P: 42.00 °C, Q: 320.00 °C)

----------
measurement.kind: glass transition temperature (°C)

Below: 5 molecules and their reported glass transition temperature.
INSERT INTO results (molecule, measurement_kind, measured_result) VALUES
  ('*c1ccc(N2C(=O)c3ccc(-c4cccc5c4C(=O)N(*)C5=O)cc3C2=O)cc1 (repeat unit)', 'glass transition temperature', 405.00),
  ('*Oc1ccc(S(=O)(=O)c2ccc(Oc3ccc(/C=N/c4ccc(Oc5ccc(/N=C/c6ccc(*)cc6)cc5)cc4)cc3)cc2)cc1 (repeat unit)', 'glass transition temperature', 162.00),
  ('*c1ccc2c(c1)C(=O)N(c1cccc(C(=O)Nc3ccc(Oc4ccc(-c5ccc(Oc6ccc(NC(=O)c7cccc(N8C(=O)c9ccc(C(*)(C(F)(F)F)C(F)(F)F)cc9C8=O)c7)cc6)cc5)cc4)cc3)c1)C2=O (repeat unit)', 'glass transition temperature', 280.00),
  ('*C(=O)Nc1ccc(Oc2ccc(NC(=O)c3ccc4c(c3)C(=O)N(C3CCC(CC5CCC(N6C(=O)c7ccc(*)cc7C6=O)CC5)CC3)C4=O)cc2)cc1 (repeat unit)', 'glass transition temperature', 250.00),
  ('*OC(C)CCC(C)OC(=O)CCCCCCCCC(*)=O (repeat unit)', 'glass transition temperature', -66.00);

P = *c1ccc(C(=O)OCCCCCCOc2ccc(/C=C/C(=O)/C=C/c3ccc(OCCCCCCOC(=O)c4ccc(-c5nnc(*)o5)cc4)cc3)cc2)cc1 (repeat unit)
Q = *CCCCCCN(C(=O)C(F)(F)C(F)(F)C(F)(F)C(=O)N(*)C(C)C)C(C)C (repeat unit)
R = *CC(*)C(=O)OCCCCCCCCCCOc1cnc(-c2ccc(OC(=O)C3COC(C)(C)O3)cc2)nc1 (repeat unit)
Exam item: I would appreciate it if you could sort these 3 molecules by glass transition temperature, starting from the smallest number. Form entry: labels listed in requested order.
Marked response: R, P, Q

P = *CC(*)c1ccc(-c2ccc3c(c2)C(CCCCCC)(CCCCCC)c2cc(-c4ccc5c(c4)C(CCCCCC)(CCCCCC)c4ccccc4-5)ccc2-3)cc1 (repeat unit)
Q = *Oc1ccccc1-c1ccccc1Oc1ccc2c(=O)n3c4cc(-c5ccc6c(c5)nc5c7ccc(*)c8cccc(c(=O)n65)c87)ccc4nc3c3cccc1c23 (repeat unit)
Exam item: Identify the entry with the larger glass transition temperature. Options: P and Q Your choice should be expressed through its label.
Marked response: Q

I = *c1ccc(Oc2ccc(-c3cccc(-c4ccc(Oc5ccc(-c6c7c(c(*)c8ccccc68)C(=O)N(c6ccccc6)C7=O)cc5)c(C(F)(F)F)c4)c3)cc2C(F)(F)F)cc1 (repeat unit)
II = *CC(*)(C)C(=O)OCc1ccc(Cl)c(Cl)c1 (repeat unit)
Exam item: Of I and II , whose reported glass transition temperature is numerically smaller? Mark your selection by writing its label.
Marked response: II
(II: 34.5 °C, I: 271.00 °C)

I = *O[Si](C)(C)O[Si](C)(C)O[Si](C)(C)OC(C)CCC(*)C (repeat unit)
II = *C(=O)Nc1ccc(-c2ccc(NC(=O)N3CC(C)N(*)CC3C)cc2)cc1 (repeat unit)
Exam item: Among I and II , whose measured glass transition temperature is the smaller figure? Use the label to indicate which entry you chose.
Marked response: I

# credit: the PolyMetriX glass transition set
